# Target Of Assay: PTPN2 (Homo sapiens, UniProt P17706, C216G)
# Sequence (P17706 1-314 C216G): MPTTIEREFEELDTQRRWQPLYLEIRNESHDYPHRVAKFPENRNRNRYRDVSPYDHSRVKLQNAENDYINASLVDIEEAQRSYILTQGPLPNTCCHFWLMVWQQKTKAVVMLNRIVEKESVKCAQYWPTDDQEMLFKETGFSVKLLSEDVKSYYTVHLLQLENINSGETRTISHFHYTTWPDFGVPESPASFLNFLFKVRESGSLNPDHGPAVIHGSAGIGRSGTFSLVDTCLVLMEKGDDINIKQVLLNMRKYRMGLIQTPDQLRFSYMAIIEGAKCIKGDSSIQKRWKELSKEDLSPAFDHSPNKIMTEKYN
# Method Summary: microscale thermophoresis
Property Label: Kd (µM)
Give bare numbers, in µM.

[in] Report Kd from PTPN2 (Homo sapiens, UniProt P17706, C216G) testing of "O=c1sn(CCOc2ccc([N+](=O)[O-])cc2)c(=O)n1Cc1ccccc1"
[out] 31.6
